# Test system: NCI-H1944
# PROCEDURE_DETAILS: relative viability (nuclei count vs DMSO), 5 days (fraction); higher = more cells survive
# CONDITION_DETAILS: first compound 0.4 µM
Strictly below 0.4 in relative viability: yes. Otherwise: no.

For orientation, consider the following solved cases.
Q) State whether 0.4 exceeds relative viability recorded for Clc1ccc(Nc2nnc(Cc3ccncc3)c3ccccc23)cc1 [Vatalanib] + CS(=O)(=O)N1CCN(Cc2cc3nc(-c4cccc5[nH]ncc45)nc(N4CCOCC4)c3s2)CC1 [Pictilisib] (partner 1 µM) .
A) yes

Q) State whether 0.4 exceeds relative viability recorded for COc1cc(N2CCC(C(N)=O)CC2)ccc1Nc1nc(N)c(Cl)c(Nc2ccccc2S(=O)(=O)C(C)C)n1 [HG-5-88-01] + COc1cc2c(Oc3ccc(NC(=O)C4(C(=O)Nc5ccc(F)cc5)CC4)cc3F)ccnc2cc1OCCCN1CCOCC1 [Foretinib] (partner 0.25 µM) .
A) no

Q) State whether 0.4 exceeds relative viability recorded for C[C@@H]1CN(CC(=O)Nc2ccc3c(c2)Cc2cccc(-c4cc(=O)cc(N5CCOCC5)o4)c2S3)C[C@H](C)O1 + COc1cc2c(Oc3ccc(NC(=O)C4(C(=O)Nc5ccc(F)cc5)CC4)cc3F)ccnc2cc1OCCCN1CCOCC1 [Foretinib] (partner 0.25 µM) .
A) no

More entries:
Q) State whether 0.4 exceeds relative viability recorded for COc1cc(N2CCC(C(N)=O)CC2)ccc1Nc1nc(N)c(Cl)c(Nc2ccccc2S(=O)(=O)C(C)C)n1 [HG-5-88-01] + C[C@]1(O)C[C@@H](c2nc(-c3ccc4ccc(-c5ccccc5)nc4c3)c3c(N)nccn32)C1 [Linsitinib] (partner 1 µM) .
A) no

Q) State whether 0.4 exceeds relative viability recorded for C[C@@H]1CN(CC(=O)Nc2ccc3c(c2)Cc2cccc(-c4cc(=O)cc(N5CCOCC5)o4)c2S3)C[C@H](C)O1 + NC(=O)Nc1cc(-c2cccc(F)c2)sc1C(=O)N[C@H]1CCCNC1 [AZD7762] (partner 0.2 µM) .
A) no

Q) State whether 0.4 exceeds relative viability recorded for COc1cc(N2CCC(C(N)=O)CC2)ccc1Nc1nc(N)c(Cl)c(Nc2ccccc2S(=O)(=O)C(C)C)n1 [HG-5-88-01] + CC(=O)c1c(C)c2cnc(Nc3ccc(N4CCNCC4)cn3)nc2n(C2CCCC2)c1=O [Palbociclib] (partner 0.5 µM) .
A) yes

###

# Tested on: NCI-H1299
# PROCEDURE_DETAILS: relative viability (nuclei count vs DMSO), 5 days (fraction); higher = more cells survive
# CONDITION_DETAILS: first compound 0.1265 µM
In this section we review reported relative viability values for a set of molecules.

Before answering, review these 3 worked examples.
Q) State its relative viability on NCI-H1299: Clc1ccc(Nc2nnc(Cc3ccncc3)c3ccccc23)cc1 [Vatalanib] + CC1(C)CCC(c2ccc(Cl)cc2)=C(CN2CCN(c3ccc(C(=O)NS(=O)(=O)c4ccc(N[C@H](CCN5CCOCC5)CSc5ccccc5)c(S(=O)(=O)C(F)(F)F)c4)cc3)CC2)C1 [Navitoclax] (partner 0.5 µM)
A) 1.05

Q) State its relative viability on NCI-H1299: Clc1ccc(Nc2nnc(Cc3ccncc3)c3ccccc23)cc1 [Vatalanib] + CC(C)C[C@H](NC(=O)[C@H](Cc1ccccc1)NC(=O)c1cnccn1)B(O)O [Bortezomib] (partner 0.002 µM)
A) 1.06

Q) State its relative viability on NCI-H1299: C[C@@H]1CN(CC(=O)Nc2ccc3c(c2)Cc2cccc(-c4cc(=O)cc(N5CCOCC5)o4)c2S3)C[C@H](C)O1 + COc1cc2c(Oc3ccc(NC(=O)C4(C(=O)Nc5ccc(F)cc5)CC4)cc3F)ccnc2cc1OCCCN1CCOCC1 [Foretinib] (partner 0.25 µM)
A) 1.1

Now let's try a different one.
Q) State its relative viability on NCI-H1299: Clc1ccc(Nc2nnc(Cc3ccncc3)c3ccccc23)cc1 [Vatalanib] + CS(=O)(=O)N1CCN(Cc2cc3nc(-c4cccc5[nH]ncc45)nc(N4CCOCC4)c3s2)CC1 [Pictilisib] (partner 1 µM)
A) 0.703

###

# System: NCI-H1755
# PROCEDURE_DETAILS: relative viability (nuclei count vs DMSO), 5 days (fraction); higher = more cells survive
# CONDITION_DETAILS: first compound 0.3162 µM
RECORDED_ENDPOINT: relative viability
Lab note: jot the number down without any unit.

Before answering, review these 2 worked examples.
Q) Give the measured relative viability of CC(C)Oc1cc(Nc2nc(N[C@@H](C)c3ccc(F)cn3)ncc2Cl)n[nH]1 [AZ23] + COc1cc2c(Oc3ccc(NC(=O)C4(C(=O)Nc5ccc(F)cc5)CC4)cc3F)ccnc2cc1OCCCN1CCOCC1 [Foretinib] (partner 0.25 µM) .
A) 0.958

Q) Give the measured relative viability of CC(C)Oc1cc(Nc2nc(N[C@@H](C)c3ccc(F)cn3)ncc2Cl)n[nH]1 [AZ23] + C[C@@H](Oc1cc(-c2cnn(C3CCNCC3)c2)cnc1N)c1c(Cl)ccc(F)c1Cl [Crizotinib] (partner 1 µM) .
A) 0.964

More entries:
Q) Give the measured relative viability of CC(C)Oc1cc(Nc2nc(N[C@@H](C)c3ccc(F)cn3)ncc2Cl)n[nH]1 [AZ23] + Cc1cc(Nc2cc(N3CCN(C)CC3)nc(Sc3ccc(NC(=O)C4CC4)cc3)n2)n[nH]1 [Tozasertib] (partner 0.1 µM) .
A) 0.664

Q) Give the measured relative viability of CC(C)Oc1cc(Nc2nc(N[C@@H](C)c3ccc(F)cn3)ncc2Cl)n[nH]1 [AZ23] + CS(=O)(=O)N1CCN(Cc2cc3nc(-c4cccc5[nH]ncc45)nc(N4CCOCC4)c3s2)CC1 [Pictilisib] (partner 1 µM) .
A) 0.464

###

# Test system: UMC-11
# PROCEDURE_DETAILS: relative viability (nuclei count vs DMSO), 5 days (fraction); higher = more cells survive
# CONDITION_DETAILS: first compound 1.265 µM
RECORDED_ENDPOINT: relative viability

Q) State its relative viability on UMC-11: COc1cc(N2CCC(C(N)=O)CC2)ccc1Nc1nc(N)c(Cl)c(Nc2ccccc2S(=O)(=O)C(C)C)n1 [HG-5-88-01] + C[C@]1(O)C[C@@H](c2nc(-c3ccc4ccc(-c5ccccc5)nc4c3)c3c(N)nccn32)C1 [Linsitinib] (partner 1 µM)
A) 1.01

Q) State its relative viability on UMC-11: Clc1ccc(Nc2nnc(Cc3ccncc3)c3ccccc23)cc1 [Vatalanib] + Nc1nc2[nH]cc(CCc3ccc(C(=O)N[C@@H](CCC(=O)O)C(=O)O)cc3)c2c(=O)[nH]1 [Pemetrexed] (partner 0.2 µM)
A) 0.791

Q) State its relative viability on UMC-11: COc1cc(N2CCC(C(N)=O)CC2)ccc1Nc1nc(N)c(Cl)c(Nc2ccccc2S(=O)(=O)C(C)C)n1 [HG-5-88-01] + Nc1nc2[nH]cc(CCc3ccc(C(=O)N[C@@H](CCC(=O)O)C(=O)O)cc3)c2c(=O)[nH]1 [Pemetrexed] (partner 0.2 µM)
A) 0.827

More entries:
Q) State its relative viability on UMC-11: COc1cc(N2CCC(C(N)=O)CC2)ccc1Nc1nc(N)c(Cl)c(Nc2ccccc2S(=O)(=O)C(C)C)n1 [HG-5-88-01] + CC(C)C[C@H](NC(=O)[C@H](Cc1ccccc1)NC(=O)c1cnccn1)B(O)O [Bortezomib] (partner 0.002 µM)
A) 0.837

Q) State its relative viability on UMC-11: Clc1ccc(Nc2nnc(Cc3ccncc3)c3ccccc23)cc1 [Vatalanib] + Cc1nc(Nc2ncc(C(=O)Nc3c(C)cccc3Cl)s2)cc(N2CCN(CCO)CC2)n1 [Dasatinib] (partner 0.075 µM)
A) 0.442

Q) State its relative viability on UMC-11: COc1cc(N2CCC(C(N)=O)CC2)ccc1Nc1nc(N)c(Cl)c(Nc2ccccc2S(=O)(=O)C(C)C)n1 [HG-5-88-01] + Cc1nc(Nc2ncc(C(=O)Nc3c(C)cccc3Cl)s2)cc(N2CCN(CCO)CC2)n1 [Dasatinib] (partner 0.075 µM)
A) 0.469

Q) State its relative viability on UMC-11: Clc1ccc(Nc2nnc(Cc3ccncc3)c3ccccc23)cc1 [Vatalanib] + CC(C)C[C@H](NC(=O)[C@H](Cc1ccccc1)NC(=O)c1cnccn1)B(O)O [Bortezomib] (partner 0.002 µM)
A) 0.717

Q) State its relative viability on UMC-11: COc1cc(N2CCC(C(N)=O)CC2)ccc1Nc1nc(N)c(Cl)c(Nc2ccccc2S(=O)(=O)C(C)C)n1 [HG-5-88-01] + O=C(CCCCCCC(=O)Nc1ccccc1)NO [Vorinostat] (partner 1 µM)
A) 0.33

Q) State its relative viability on UMC-11: COc1cc(N2CCC(C(N)=O)CC2)ccc1Nc1nc(N)c(Cl)c(Nc2ccccc2S(=O)(=O)C(C)C)n1 [HG-5-88-01] + Nc1ncn([C@H]2C[C@H](O)[C@@H](CO)O2)c(=O)n1 [Decitabine] (partner 2 µM)
A) 0.526

Q) State its relative viability on UMC-11: Clc1ccc(Nc2nnc(Cc3ccncc3)c3ccccc23)cc1 [Vatalanib] + CS(=O)(=O)N1CCN(Cc2cc3nc(-c4cccc5[nH]ncc45)nc(N4CCOCC4)c3s2)CC1 [Pictilisib] (partner 1 µM)
A) 0.79

Q) State its relative viability on UMC-11: COc1cc(N2CCC(C(N)=O)CC2)ccc1Nc1nc(N)c(Cl)c(Nc2ccccc2S(=O)(=O)C(C)C)n1 [HG-5-88-01] + Cc1cc(Nc2cc(N3CCN(C)CC3)nc(Sc3ccc(NC(=O)C4CC4)cc3)n2)n[nH]1 [Tozasertib] (partner 0.1 µM)
A) 0.192

Q) State its relative viability on UMC-11: COc1cc(N2CCC(C(N)=O)CC2)ccc1Nc1nc(N)c(Cl)c(Nc2ccccc2S(=O)(=O)C(C)C)n1 [HG-5-88-01] + CC1(C)CCC(c2ccc(Cl)cc2)=C(CN2CCN(c3ccc(C(=O)NS(=O)(=O)c4ccc(N[C@H](CCN5CCOCC5)CSc5ccccc5)c(S(=O)(=O)C(F)(F)F)c4)cc3)CC2)C1 [Navitoclax] (partner 0.5 µM)
A) 0.322

Source: the supplement of paper PMC10307832
